test system: goosegrass (Eleusine indica); assay: Test C preemergence; format: in vivo; conditions: preemergence, Rate 62 g/ha, scale 0 to 100
Source text: […]
Observed Property: Plant response rating, Goosegrass
Give the figure by itself; no unit, no explanation.

Examples with answers:
Compound	Experimental Value
CCC(CC)c1ccn(C2CCN(c3cccc(OC)c3)C2=O)n1 (stereo not shown)	100
CCC(C)c1ccn(C2OCN(c3cccc(OC(F)F)c3)C2=O)n1 (stereo not shown)	100
CCC(C)c1ccn(C2CCN(c3ccc(F)c(C(F)(F)F)c3)C2=O)n1 (stereo not shown)	90

Input line: Output measured Plant response rating, Goosegrass for this item: CCCC(C)c1ccn(C2CCN(c3cccc(OC)c3)C2=O)n1 (stereo not shown)
Output line: 80

Input line: // Input: CC(C)(C)c1ccn(C2CCN(c3cccc(I)c3)C2=O)n1 (stereo not shown) . Output its Plant response rating, Goosegrass only.
Output line: 100

Input line: Give the measured Plant response rating, Goosegrass for CC(C)c1cccc(N2CCC(n3ccc(C(C)(C)C)n3)C2=O)c1 (stereo not shown)
Output line: 40

Input line: Check the records and state Plant response rating, Goosegrass for CCCC(C)c1ccn(C2CCN(c3ccc(Cl)c(OC)c3)C2=O)n1 (stereo not shown)
Output line: 100

Input line: Give Plant response rating, Goosegrass for the following compound: Cc1ccc(N2CCC(n3ccc(C(C)(C)C)n3)C2=O)cc1OCCCl (stereo not shown)
Output line: 100

Input line: # return recorded Plant response rating, Goosegrass for input CCOc1cc(N2CCC(n3ccc(C(C)(C)C)n3)C2=O)ccc1C (stereo not shown)
Output line: 100

Input line: State its Plant response rating, Goosegrass for this compound: COc1cc(N2CCC(n3ccc(C(C)(C)C)n3)C2=O)ccc1Cl (stereo not shown)
Output line: 100
